- assayed-target: Mitogen-activated protein kinase 8 (Homo sapiens, UniProt P45983)
- Sequence (P45983 whole entry): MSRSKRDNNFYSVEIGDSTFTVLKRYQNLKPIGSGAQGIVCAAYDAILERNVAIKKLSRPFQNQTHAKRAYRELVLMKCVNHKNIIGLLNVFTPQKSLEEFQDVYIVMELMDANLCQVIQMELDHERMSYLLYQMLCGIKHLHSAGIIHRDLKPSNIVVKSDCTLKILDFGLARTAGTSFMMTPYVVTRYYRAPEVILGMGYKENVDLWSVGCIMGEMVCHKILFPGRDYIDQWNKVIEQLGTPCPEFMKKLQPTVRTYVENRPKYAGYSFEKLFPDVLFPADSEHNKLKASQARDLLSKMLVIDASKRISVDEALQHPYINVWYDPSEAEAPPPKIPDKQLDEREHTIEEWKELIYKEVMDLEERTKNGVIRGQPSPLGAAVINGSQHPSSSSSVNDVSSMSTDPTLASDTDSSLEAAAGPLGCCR
- assay-explanation: Inhibition of JNK1 (unknown origin) by JIP-FP displacement assay
assay-readout: IC50 (µM)
Entry rule: numbers only, all in µM.

Output IC50 of COc1ccc2c(c1)OCC(C(=O)NC(=O)N(CC(=O)NCCCCCCNC(=O)c1ccc(-c3n[nH]c4ccccc34)cc1)CC(C)C)O2 (stereo unspecified)
0.109

* * *

Item-by-item account of pIC50
- assayed-target: Mitogen-activated protein kinase 8 (Homo sapiens, UniProt P45983)
- assay-explanation: Inhibition of JNK1 (unknown origin) by time-resolved fluorescence assay
FYI, pIC50 means -log10 of a concentration in mol per litre.

Below: 4 compounds and their reported pIC50.
Cc1ccc(-c2ncn(-c3ccc(Nc4nccc(-c5cccc(N6CCOCC6)c5)n4)cc3)n2)cn1
7.17
COc1cc(NC(=O)c2cccc(-n3cc(NC(=O)Nc4cccc(C)c4)cn3)c2)cc(OC)c1OC
7.77
COc1ccc(CC(=O)Nc2cc3cc(-c4cnn(C)c4)ccc3cn2)cc1
9.10
COc1cc(N2CCOCC2)ccc1Nc1ncc(Cl)c(Nc2ccccc2C(N)=O)n1
8.52

Pending compound:
Enter recorded pIC50 with Mitogen-activated protein kinase 8 (Homo sapiens, UniProt P45983) for CN(C)c1ccc(-c2cnc3[nH]cc(-c4cn[nH]c4)c3c2)cc1 here.
7.00

* * *

- assayed-target: Mitogen-activated protein kinase 9 (Homo sapiens)
- Sequence (P45984 whole entry): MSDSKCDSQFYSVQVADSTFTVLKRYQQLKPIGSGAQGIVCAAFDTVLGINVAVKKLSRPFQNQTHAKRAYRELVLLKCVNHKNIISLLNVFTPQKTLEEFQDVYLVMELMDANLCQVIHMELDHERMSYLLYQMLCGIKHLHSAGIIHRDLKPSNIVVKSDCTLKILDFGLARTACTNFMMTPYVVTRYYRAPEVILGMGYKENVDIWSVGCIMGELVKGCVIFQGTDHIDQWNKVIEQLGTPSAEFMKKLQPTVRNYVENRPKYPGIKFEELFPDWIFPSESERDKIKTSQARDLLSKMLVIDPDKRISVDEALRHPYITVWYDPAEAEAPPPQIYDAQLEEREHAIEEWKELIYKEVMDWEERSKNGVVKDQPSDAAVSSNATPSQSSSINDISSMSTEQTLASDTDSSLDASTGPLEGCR
- assay-explanation: Inhibition of JNK2 (unknown origin) by time-resolved fluorescence assay
Item-by-item account of IC50
Entry rule: numbers only, all in nM.

Below: 5 compounds and their reported IC50.
Cn1cc(-c2c[nH]c3ncc([C@H]4CC[C@H](N5CCOCC5)CC4)cc23)cn1
123
Fc1cc(-c2cc[nH]/c(=N/c3ccc(-n4cnc(N5CCOCC5)n4)cc3)n2)cc(N2CCOCC2)c1
99
CN(C)c1ccc(-c2cnc3[nH]cc(-c4cn[nH]c4)c3c2)cc1
59
Cn1cc(-c2ccc3cnc(Nc4ccc(-n5cnc(N6CCOCC6)n5)cc4)nc3c2)cn1
90
Cc1ccc(-c2ncn(-c3ccc(Nc4nccc(-c5cccc(N6CCOCC6)c5)n4)cc3)n2)cn1
283

Pending compound:
Output IC50 of Cn1cc(-c2c[nH]c3ncc([C@H]4CC[C@H](N5CCCOCC5)CC4)cc23)cn1
339

* * *

- assayed-target: Mitogen-activated protein kinase 10 (Homo sapiens)
- Sequence (P53779 whole entry): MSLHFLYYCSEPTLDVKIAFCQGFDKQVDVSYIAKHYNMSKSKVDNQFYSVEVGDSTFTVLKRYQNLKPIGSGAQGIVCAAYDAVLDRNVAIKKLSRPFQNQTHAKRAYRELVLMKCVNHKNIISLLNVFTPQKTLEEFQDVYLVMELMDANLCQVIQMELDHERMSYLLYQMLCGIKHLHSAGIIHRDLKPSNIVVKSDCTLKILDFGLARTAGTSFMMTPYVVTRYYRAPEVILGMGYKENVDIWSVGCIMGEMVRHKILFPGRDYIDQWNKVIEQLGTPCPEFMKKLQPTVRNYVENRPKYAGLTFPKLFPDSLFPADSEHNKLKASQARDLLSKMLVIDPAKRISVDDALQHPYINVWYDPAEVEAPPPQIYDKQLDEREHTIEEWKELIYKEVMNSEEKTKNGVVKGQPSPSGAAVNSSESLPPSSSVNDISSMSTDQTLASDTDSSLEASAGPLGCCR
- assay-explanation: Inhibition of JNK3-mediated c-jun phosphorylation in human A375 cells after 1 hr incubation
- Format: cell-based, A-375
assay-readout: pIC50
FYI, pIC50 means -log10 of a concentration in mol per litre.

CN(C)C/C=C/C(=O)Nc1ccc(C(=O)Nc2cccc(Nc3nccc(-c4cccnc4)n3)c2)cc1
5.62

Pending molecule:
Output pIC50 of CN(C)C/C=C/C(=O)Nc1cccc(C(=O)Nc2ccc(Nc3nccc(-c4c(-c5ccccc5)nn5ccccc45)n3)cc2)c1
8.05

* * *

Item-by-item account of IC50
- assayed-target: Mitogen-activated protein kinase 10 (Rattus norvegicus, UniProt P49187)
- Sequence (P49187 whole entry): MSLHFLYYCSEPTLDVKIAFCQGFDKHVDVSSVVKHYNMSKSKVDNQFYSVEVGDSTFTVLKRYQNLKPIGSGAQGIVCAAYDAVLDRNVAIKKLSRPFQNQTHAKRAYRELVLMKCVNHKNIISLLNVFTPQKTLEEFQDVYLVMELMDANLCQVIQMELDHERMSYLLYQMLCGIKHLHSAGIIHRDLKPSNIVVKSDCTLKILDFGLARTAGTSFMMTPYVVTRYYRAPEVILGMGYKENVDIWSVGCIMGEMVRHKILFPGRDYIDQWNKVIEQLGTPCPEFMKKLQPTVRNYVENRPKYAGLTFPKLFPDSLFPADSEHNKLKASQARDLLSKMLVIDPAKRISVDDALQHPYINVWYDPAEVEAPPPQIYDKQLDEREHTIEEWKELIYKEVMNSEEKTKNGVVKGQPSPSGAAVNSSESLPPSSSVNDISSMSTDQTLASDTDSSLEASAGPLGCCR
- assay-explanation: Inhibition of JNK3-mediated c-jun phosphorylation in rat INS1 cells
Entry rule: numbers only, all in nM.

Below: 3 molecules and their reported IC50.
Fc1cc(-c2cc[nH]/c(=N/c3ccc(-n4cnc(N5CCOCC5)n4)cc3)n2)cc(N2CCOCC2)c1
54
CS(=O)(=O)Nc1ccc(-c2ccnc(Nc3ccc(-n4ccnn4)cc3)n2)cc1
210
COc1cc(NC(=O)c2cccc(-n3cc(NC(=O)Nc4cccc(C)c4)cn3)c2)cc(OC)c1OC
1300

Output IC50 of COc1cc(N2CCOCC2)ccc1Nc1ncc(Cl)c(Nc2ccccc2C(N)=O)n1
3
